For each record, write down the corresponding Ki.
- TGT: Delta-type opioid receptor (Rattus norvegicus)
- Sequence (P33533 whole entry): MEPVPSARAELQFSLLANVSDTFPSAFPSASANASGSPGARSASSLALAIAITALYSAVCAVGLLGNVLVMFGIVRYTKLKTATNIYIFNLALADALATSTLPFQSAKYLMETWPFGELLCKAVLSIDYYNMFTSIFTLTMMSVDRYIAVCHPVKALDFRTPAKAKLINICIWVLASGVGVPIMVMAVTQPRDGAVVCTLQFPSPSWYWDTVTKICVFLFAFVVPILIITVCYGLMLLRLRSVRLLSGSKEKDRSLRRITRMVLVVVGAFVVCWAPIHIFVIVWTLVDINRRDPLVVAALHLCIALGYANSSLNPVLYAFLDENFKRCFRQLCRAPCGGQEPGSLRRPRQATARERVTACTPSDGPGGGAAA
- PROTOCOL_DETAILS: Binding affinity to delta opioid receptor in rat brain synaptosome membrane by radioligand binding assay
One number for each entry, in µM.

These solved cases illustrate the format of a correct answer.
structure_smiles=COc1ccc(C[C@H](N=C(N)N)C(=O)N2CCC[C@H]2C(=O)N[C@@H](Cc2c[nH]c3ccccc23)C(=O)N[C@@H](Cc2ccc(Cl)cc2)C(N)=O)cc1 uom=µM value_measured=1.37
structure_smiles=COc1ccc(C[C@H](N=C(N)N)C(=O)N2CCC[C@H]2C(=O)N[C@@H](Cc2c[nH]c3ccccc23)C(=O)N[C@@H](Cc2ccccc2)C(N)=O)cc1 uom=µM value_measured=4.79

Okay, now this compound:
Query: Tell me its Ki given `COc1ccc(C[C@H](NC(=N)N)C(=O)N2CCC[C@@H]2C(=O)NCC(=O)N[C@@H](Cc2c[nH]c3ccccc23)C(=O)N[C@@H](Cc2ccc(Cl)cc2)C(N)=O)cc1` as the entry.
Response: 1.48
